Molecular target: human TRPV1 (Homo sapiens (Human), UniProt Q8NER1)
Sequence (Q8NER1 whole entry): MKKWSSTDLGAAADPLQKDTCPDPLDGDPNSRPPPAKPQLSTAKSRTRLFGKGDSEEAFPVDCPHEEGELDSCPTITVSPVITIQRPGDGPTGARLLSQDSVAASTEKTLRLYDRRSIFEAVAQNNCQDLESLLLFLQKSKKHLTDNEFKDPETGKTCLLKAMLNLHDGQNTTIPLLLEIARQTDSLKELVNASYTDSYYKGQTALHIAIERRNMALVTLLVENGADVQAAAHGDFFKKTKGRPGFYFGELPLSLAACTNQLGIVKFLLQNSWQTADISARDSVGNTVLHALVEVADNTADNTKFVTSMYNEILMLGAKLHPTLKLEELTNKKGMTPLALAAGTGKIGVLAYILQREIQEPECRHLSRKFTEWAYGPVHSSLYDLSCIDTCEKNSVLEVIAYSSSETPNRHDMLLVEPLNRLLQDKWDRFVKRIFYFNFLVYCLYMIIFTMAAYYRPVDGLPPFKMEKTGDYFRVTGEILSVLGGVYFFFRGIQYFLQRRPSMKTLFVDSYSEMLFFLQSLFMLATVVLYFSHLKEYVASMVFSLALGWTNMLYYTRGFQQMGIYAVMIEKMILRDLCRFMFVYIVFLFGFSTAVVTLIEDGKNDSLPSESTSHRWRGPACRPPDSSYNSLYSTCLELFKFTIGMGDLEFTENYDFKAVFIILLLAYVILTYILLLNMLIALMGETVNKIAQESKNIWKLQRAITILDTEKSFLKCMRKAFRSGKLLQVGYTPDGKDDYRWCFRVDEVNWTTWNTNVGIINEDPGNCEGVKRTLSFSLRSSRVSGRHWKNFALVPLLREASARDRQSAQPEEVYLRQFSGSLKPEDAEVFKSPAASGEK
Settings: read-out: IC50 (μM), antagonist effect against human TRPV1; CHO cells expressing human TrpV1; stimulated with 2.5 μM NADA (EC80); mean of at least three independent experiments
Counter-ions that a name gives are not always drawn.
Recorded IC50 values for a group of compounds are listed next.
// note: answer is a bare numeric in µM

# annotated cases, reported IC50 shown
>  <Compound>
OCC[C@@H](O)c1cc(F)c(CN[C@H]2C[C@H](Oc3ccc(F)c(C(F)(F)F)c3)C2)c2ccncc12 (single isomer, unassigned; peak 2) [Example 9 peak 2]

>  <System Under Test>
human TRPV1 (Homo sapiens (Human), UniProt Q8NER1)

>  <Measure Unit>
µM

>  <Observed>
0.0137

$$$$
>  <Compound>
Nc1cc2c(CN[C@H]3C[C@H](Oc4ccc(F)c(C(F)(F)F)c4)C3)c(F)cc([C@H](O)CO)c2cn1 (single isomer, unassigned; peak 2) [Example 21 peak 2]

>  <System Under Test>
human TRPV1 (Homo sapiens (Human), UniProt Q8NER1)

>  <Measure Unit>
µM

>  <Observed>
0.0113

$$$$
>  <Compound>
Fc1ccc2cnccc2c1CN[C@H]1C[C@H](Oc2cccc(S(F)(F)(F)(F)F)c2)C1 [Example 33, HCl]

>  <System Under Test>
human TRPV1 (Homo sapiens (Human), UniProt Q8NER1)

>  <Measure Unit>
µM

>  <Observed>
0.0154

$$$$

*Q* Checklist item: IC50 tested on human TRPV1 (Homo sapiens (Human), UniProt Q8NER1), entry Nc1cc2c(CN[C@H]3C[C@H](Oc4ccnc(C(F)(F)F)c4)C3)c(F)ccc2cn1 [Example 16, HCl] , value?
*A* 0.031

*Q* And Fc1ccc(CO[C@H]2C[C@H](NCc3c(F)ccc4cnccc34)C2)c(F)c1 [Example 105] ?
*A* 1.28

*Q* // query: Fc1ccc2cnccc2c1CN[C@H]1C[C@H](Oc2ccc(C(F)(F)F)nc2F)C1 [Example 58]
*A* 0.0829

*Q* Here is the next compound: OC(CC(F)(F)F)c1cc(F)c(CN[C@H]2C[C@H](Oc3ccc(F)c(C(F)(F)F)c3)C2)c2ccncc12 (some centres unmarked) [Example 11]
*A* 0.395

*Q* Note, next up: Fc1cc(O[C@H]2C[C@H](NCc3c(F)ccc4cnccc34)C2)ccc1OC(F)F [Example 51]
*A* 0.117

The values you see were collected from patent US11845730B2.
